biological target: human TAS2R1 (Homo sapiens, UniProt Q9NYW7); construct: expressed in transfected cells; host or cells: HEK293T-Gα16gust44; experiment: Calcium imaging assay (FLIPR), HEK293T-Gα16gust44 cells transfected with human TAS2R1; assay type: cell-based; settings: Time 8.015 s
Sequence (Q9NYW7 whole entry): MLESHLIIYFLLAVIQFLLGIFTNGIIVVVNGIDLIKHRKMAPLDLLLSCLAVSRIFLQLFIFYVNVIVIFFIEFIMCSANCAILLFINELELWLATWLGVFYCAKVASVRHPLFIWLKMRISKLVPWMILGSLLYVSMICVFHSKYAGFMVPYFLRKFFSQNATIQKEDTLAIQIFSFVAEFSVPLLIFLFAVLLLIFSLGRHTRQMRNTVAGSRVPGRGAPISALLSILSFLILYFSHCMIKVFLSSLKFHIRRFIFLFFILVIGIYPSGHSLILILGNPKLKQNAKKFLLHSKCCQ
readoutKind: RLU (RLU)
Provide the reading as a plain figure in RLU.

# compoundSmiles, recordedValue
data = [
    ("C[C@H](CCC(=O)O)[C@H]1CC[C@H]2[C@@H]3[C@H](O)C[C@@H]4C[C@H](O)CC[C@]4(C)[C@H]3C[C@H](O)[C@]12C", -41.5185),
    ("C[C@H](CCC(=O)O)[C@H]1CC[C@H]2[C@@H]3[C@H](O)C[C@@H]4C[C@H](O)CC[C@]4(C)[C@H]3CC[C@]12C", -2.669),
    ("C[C@H](CCC(=O)O)[C@H]1CC[C@H]2[C@@H]3CC[C@@H]4C[C@H](O)CC[C@]4(C)[C@H]3CC[C@]12C", 0.3531),
]

Next up:
Request: Look up RLU: C[C@H](CCC(=O)O)[C@H]1CC[C@H]2[C@@H]3[C@@H](O)C[C@@H]4C[C@H](O)CC[C@]4(C)[C@H]3CC[C@]12C
Response: -6.66
